tested_target: human DP2 receptor (Homo sapiens)
Sequence (Q9Y5Y4 1-395): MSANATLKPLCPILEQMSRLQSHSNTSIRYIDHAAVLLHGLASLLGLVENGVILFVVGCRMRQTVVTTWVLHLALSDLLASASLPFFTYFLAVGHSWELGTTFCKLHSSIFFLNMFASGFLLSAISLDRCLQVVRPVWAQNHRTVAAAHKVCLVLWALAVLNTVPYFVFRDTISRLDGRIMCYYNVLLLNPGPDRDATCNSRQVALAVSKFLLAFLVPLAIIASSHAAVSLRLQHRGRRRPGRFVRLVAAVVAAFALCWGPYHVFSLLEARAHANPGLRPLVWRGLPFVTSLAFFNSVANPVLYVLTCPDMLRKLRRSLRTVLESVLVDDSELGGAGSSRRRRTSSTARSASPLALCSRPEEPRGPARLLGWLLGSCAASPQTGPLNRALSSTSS
test: DP2/CRTH2 radioligand binding assay using [3H]PGD2
run_conditions: hDP2 (CRTH2) binding assay, membranes of HEK293 cells expressing recombinant human DP2
We begin with a simple list: items and their reported IC50.

COC(=O)N(Cc1ccccc1)Cc1cc(C(F)(F)F)ccc1Oc1cc(CC(=O)O)ccc1OC | < 300 nM
CCN(Cc1cc(C(F)(F)F)ccc1Oc1cccc(CC(=O)O)c1)C(=O)c1ccccc1 | < 300 nM
COC(=O)N(Cc1cc(N(C)C(C)=O)ccc1Oc1cccc(CC(=O)O)c1)[C@@H](C)Cc1ccccc1 | > 300 nM

Now, please, on to the next compound.
Ask: Which IC50 is listed for CCN(Cc1cc(C(F)(F)F)ccc1Oc1cccc(CC(=O)O)c1)S(=O)(=O)c1ccc(C(C)=O)cc1 ?
Result: < 300 nM

* * *

tested_target: UniProt Q9Y5Y4
test: DP2/CRTH2 radioligand binding assay using [3H]PGD2
run_conditions: hDP2 (CRTH2) binding assay, membranes of HEK293 cells expressing recombinant human DP2
property_measured: IC50

O=C(O)CCn1c2c(c3ccccc31)C[C@H](NS(=O)(=O)c1ccc(F)cc1)CC2 [Ramatroban, reference compound] | > 0.3 µM
COc1ccc(CC(=O)O)cc1Oc1ccc(Br)cc1CN(Cc1ccccc1)C(C)=O | < 0.3 µM
CCN(Cc1cc(C(F)(F)F)ccc1Oc1cc(CC(=O)O)ccc1OC)C(C)=O | > 0.3 µM

Now, please, on to the next molecule.
Ask: Which IC50 is listed for CC(=O)N(Cc1cc(C(F)(F)F)ccc1Oc1cccc(CC(=O)O)c1)C1CCc2ccccc21 (stereo in doubt) [Compound 1-13] ?
Result: < 0.3 µM

* * *

We begin with a simple list: items and their reported IC50.
tested_target: human DP2 receptor (Homo sapiens)
Sequence (Q9Y5Y4 1-395): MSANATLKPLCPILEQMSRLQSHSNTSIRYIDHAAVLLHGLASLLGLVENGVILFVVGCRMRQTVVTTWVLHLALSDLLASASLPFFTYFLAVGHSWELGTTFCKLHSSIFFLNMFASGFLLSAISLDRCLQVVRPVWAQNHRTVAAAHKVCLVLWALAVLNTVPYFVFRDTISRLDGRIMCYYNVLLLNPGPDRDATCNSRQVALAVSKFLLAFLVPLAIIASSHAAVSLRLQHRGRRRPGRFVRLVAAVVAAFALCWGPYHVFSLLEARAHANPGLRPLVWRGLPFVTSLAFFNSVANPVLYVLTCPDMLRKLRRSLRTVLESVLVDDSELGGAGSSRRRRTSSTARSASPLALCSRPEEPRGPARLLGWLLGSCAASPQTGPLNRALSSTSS
test: DP2/CRTH2 radioligand binding assay using [3H]PGD2
run_conditions: hDP2 (CRTH2) binding assay, membranes of HEK293 cells expressing recombinant human DP2

# example entries with known answers
CCN(Cc1cc(NC(=O)c2ccc(Cl)cc2)ccc1Oc1cc(CC(=O)O)ccc1OC)C(C)=O [Compound 1-46] | < 300 nM
O=C(O)Cc1cccc(Oc2ccc(C(F)(F)F)cc2CNC(=O)c2ccc(Cl)cc2)c1 [Compound 1-15] | > 300 nM

Ask: Which IC50 is listed for COc1ccc(S(=O)(=O)N(C)Cc2cc(C(F)(F)F)ccc2Oc2cccc(CC(=O)O)c2)cc1 [Compound 1-25] ?
Result: > 300 nM

Ask: Which IC50 is listed for CCN(Cc1cc(C(F)(F)F)ccc1Oc1cccc(CC(=O)O)c1)S(=O)(=O)c1ccc2ccccc2c1 [Compound 1-30] ?
Result: < 300 nM

Ask: Which IC50 is listed for COC(=O)N(Cc1ccccc1)Cc1cc(Br)ccc1Oc1cc(CC(=O)O)ccc1OC [Compound 1-11] ?
Result: < 300 nM

Ask: Which IC50 is listed for CCN(Cc1cc(C(F)(F)F)ccc1Oc1cccc(CC(=O)O)c1)S(=O)(=O)c1ccc(N(C)c2cccc(C)c2)cc1 [Compound 1-33] ?
Result: < 300 nM

Ask: Which IC50 is listed for CCN(Cc1cc(C(F)(F)F)ccc1Oc1cccc(CC(=O)O)c1)S(=O)(=O)c1ccc(Br)cc1 [Compound 1-31] ?
Result: < 300 nM

* * *

We begin with a simple list: items and their reported IC50.
tested_target: human DP2 receptor (Homo sapiens, UniProt Q9Y5Y4)
test: DP2/CRTH2 radioligand binding assay using [3H]PGD2
run_conditions: hDP2 (CRTH2) binding assay, membranes of HEK293 cells expressing recombinant human DP2

Ask: Which IC50 is listed for CCN(Cc1cc(NC(=O)C(C)(C)C)ccc1Oc1cc(CC(=O)O)ccc1OC)C(=O)C1CC1 [Compound 1-47] ?
Result: < 0.3 µM

Ask: Which IC50 is listed for CCN(Cc1cc(NC(=O)C(C)(C)C)ccc1Oc1cc(CC(=O)O)ccc1OC)C(C)=O [Compound 1-45] ?
Result: < 0.3 µM

Ask: Which IC50 is listed for O=C(O)Cc1cccc(Oc2ccc(Br)cc2CN(C(=O)OCc2ccccc2)C2CCc3ccccc32)c1 (stereo in doubt) [Compound 1-6] ?
Result: < 0.3 µM

Ask: Which IC50 is listed for COC(=O)N(Cc1cc(N(C)S(C)(=O)=O)ccc1Oc1cccc(C(C)C(=O)O)c1)[C@@H](C)Cc1ccccc1 (stereo partly shown) [Compound 1-43] ?
Result: > 1 µM

* * *

We begin with a simple list: items and their reported pIC50.
tested_target: human DP2 receptor (Homo sapiens)
test: DP2/CRTH2 radioligand binding assay using [3H]PGD2
run_conditions: hDP2 (CRTH2) binding assay, membranes of HEK293 cells expressing recombinant human DP2
pIC50: −log10 of the molar value.

# example entries with known answers
CCN(Cc1cc(NC(=O)c2ccc(Cl)cc2)ccc1Oc1cc(CC(=O)O)ccc1OC)C(=O)OCc1ccccc1 | > 6.52
O=C(O)Cc1cccc(Oc2ccc(C(F)(F)F)cc2CNS(=O)(=O)c2ccc(Cl)cc2)c1 | > 6.52
CCN(Cc1cc(Br)ccc1Oc1cc(CC(=O)O)ccc1OC)C(C)=O | > 6.52
COC(=O)N(Cc1cc(NS(C)(=O)=O)ccc1Oc1cccc(CC(=O)O)c1)[C@@H](C)Cc1ccccc1 | > 6.52
CCN(Cc1cc(Br)ccc1Oc1cc(CC(=O)O)ccc1OC)C(=O)OC | > 6.52
CCN(Cc1cc(C(F)(F)F)ccc1Oc1cccc(CC(=O)O)c1)C(=O)Cc1ccccc1 | < 6.52
CCN(Cc1cc(C(F)(F)F)ccc1Oc1cccc(CC(=O)O)c1)S(=O)(=O)c1ccc(S(C)(=O)=O)cc1 | < 6.52
CCN(Cc1cc(C(F)(F)F)ccc1Oc1cccc(CC(=O)O)c1)S(=O)(=O)c1ccc(OC)cc1 | > 6.52

Ask: Which pIC50 is listed for CN(Cc1cc(C(F)(F)F)ccc1Oc1cccc(CC(=O)O)c1)S(=O)(=O)c1ccccc1C(F)(F)F ?
Result: < 6.52

Ask: Which pIC50 is listed for COC(=O)N(Cc1cc(C(F)(F)F)ccc1Oc1cccc(CC(=O)O)c1)C1Cc2ccccc2C1 ?
Result: > 6.52

Ask: Which pIC50 is listed for CCN(Cc1cc(C(F)(F)F)ccc1Oc1cccc(CC(=O)O)c1)S(=O)(=O)c1ccc(Nc2cccc(C)c2)cc1 ?
Result: > 6.52

Ask: Which pIC50 is listed for CC(=O)N(Cc1cc(Br)ccc1Oc1cccc(CC(=O)O)c1)C(C)(C)Cc1ccc(F)cc1 ?
Result: > 6.52

Ask: Which pIC50 is listed for COC(=O)N(Cc1ccccc1)Cc1cc(Br)ccc1Oc1cccc(CC(=O)O)c1 ?
Result: > 6.52

Ask: Which pIC50 is listed for COC(=O)N(Cc1cc(Br)ccc1Oc1cccc(CC(=O)O)c1)[C@@H](C)Cc1ccccc1 ?
Result: > 6.52

Ask: Which pIC50 is listed for CN(Cc1cc(C(F)(F)F)ccc1Oc1cccc(CC(=O)O)c1)C(=O)OCc1ccccc1 ?
Result: > 6.52

* * *

tested_target: human DP2 receptor (Homo sapiens)
Sequence (Q9Y5Y4 1-395): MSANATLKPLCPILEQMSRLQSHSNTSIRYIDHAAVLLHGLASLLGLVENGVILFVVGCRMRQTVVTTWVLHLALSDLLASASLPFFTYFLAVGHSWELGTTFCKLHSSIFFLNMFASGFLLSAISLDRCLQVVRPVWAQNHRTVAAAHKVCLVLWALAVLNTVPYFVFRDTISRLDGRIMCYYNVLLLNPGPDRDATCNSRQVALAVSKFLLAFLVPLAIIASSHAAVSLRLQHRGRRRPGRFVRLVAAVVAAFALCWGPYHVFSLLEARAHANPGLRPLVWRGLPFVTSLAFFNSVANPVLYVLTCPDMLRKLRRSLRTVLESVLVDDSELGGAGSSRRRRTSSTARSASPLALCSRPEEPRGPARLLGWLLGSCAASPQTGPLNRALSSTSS
test: DP2/CRTH2 radioligand binding assay using [3H]PGD2
run_conditions: hDP2 (CRTH2) binding assay, membranes of HEK293 cells expressing recombinant human DP2
pIC50: −log10 of the molar value.
We begin with a simple list: items and their reported pIC50.

CN(Cc1cc(C(F)(F)F)ccc1Oc1cccc(CC(=O)O)c1)S(=O)(=O)c1ccc(Cl)cc1 [Compound 1-23] | > 6.52

Ask: Which pIC50 is listed for COC(=O)N(Cc1cc(C(F)(F)F)ccc1Oc1cccc(CC(=O)O)c1)C1CCc2ccccc21 (stereo in doubt) [Compound 1-19] ?
Result: > 6.52

Origin of values: patent US8426449B2
